tested on: 786-0 renal; experiment: NCI tumour cell line growth inhibition, 48 h; in the data active means GI50 below about 0.43 µM; inactive means the rest
The categories you may choose from are active, inactive

CC(C)(C)c1ccc([I+]c2ccc(C(C)(C)C)cc2)cc1 | inactive
CC(ONC(=O)c1cc(C(F)(F)F)cc(C(F)(F)F)c1)C(=O)Nc1ccc(Cl)cc1 (stereo not given) | inactive
COc1ccc(O)c(C(=O)c2ccc(C(=O)O[C@@H]3CCCNC[C@H]3NC(=O)c3ccncc3)cc2)c1F | active

Which outcome was assigned to C(=C1c2ccccc2-c2ccccc21)c1ccccn1 in this test?
inactive

Which outcome was assigned to O=C1/C(=C/c2ccccc2Cl)N=C(c2ccccc2)N1Cc1ccco1 in this test?
inactive

---

system: SR leukemia; test: NCI tumour cell line growth inhibition, 48 h; in the data active = GI50 below about 0.43 µM; inactive = the rest
The categories you may choose from are Yes = active, No = inactive

# count of solved cases: 5
CCOC(=O)CC1(O)C=CC(=O)C=C1 | No
O=C(Nc1cc(C(F)(F)F)ccc1F)Nc1n[nH]c2ccccc12 | No
COc1cccc(/C=N\Nc2ccc([N+](=O)[O-])cn2)c1O | No
COc1cc(CSc2nc3ccc(C)cc3c(=O)n2Cc2ccccc2)cc(OC)c1OC | Yes
O=C1c2ccccc2C(=O)N1c1ccc(S(=O)(=O)Nc2ncccn2)cc1 | No

Which outcome was assigned to CC(=O)/C=C/C1=C(c2cc3ccccc3s2)c2ccccc2CC1 in this test?
No

---

system: OVCAR-4 ovarian; test: NCI tumour cell line growth inhibition, 48 h
I'd be grateful if you could share measured TGI for these entries.

Report TGI for every entry below.
1. NNC(=O)CNC(=O)CSc1nnc(COc2ccc(Cl)cc2)n1-c1ccccc1
2. CC(C)(C)c1ccc([I+]c2ccc(C(C)(C)C)cc2)cc1
3. O=C(O)CSCC(=O)Nc1ccc2cccc3c2c1CC3
4. COc1cc(OC)c2c(=O)c(O)c(-c3ccc(OC)c(OC)c3)oc2c1
5. CC(C)C(=O)N[C@@H](C)C(=O)N(Cc1ccc2ccccc2c1)N=O
6. CC(NS(C)(=O)=O)c1ccccc1 (stereo not drawn)
7. COC(OC)c1cccc2c1C1(O)CCC3(CC21)OCCCCO3 (stereo not drawn)
8. CCC[CH2][Sn]([CH2]CCC)([O]C(=O)c1cccc(F)c1)[O]C(=O)c1cccc(F)c1

["> 100 µM", "11 µM", "> 100 µM", "2.31 µM", "> 100 µM", "> 100 µM", "> 100 µM", "3.83 µM"]

Report TGI for every entry below.
1. Cc1ccccc1C(=O)Oc1ccc(Oc2ccccc2)cc1
2. O=C(COc1cccc(/C=C2\COc3ccccc3C2=O)c1)Nc1nccs1
3. O=C1OC(c2ccc(O)c(Cl)c2)(c2ccc(O)c(Cl)c2)c2ccc(Br)c3cccc1c23 (tested in a mixture with another compound)

> 100 µM
14.3 µM
11.6 µM

Report TGI for every entry below.
1. O=C(Nc1ccc(Br)cc1)Nc1n[nH]c2ccccc12
2. Cc1ccc(NC(=O)/C(CC(=O)c2c[n+](=O)c3ccccc3n2O)=N\NC(=O)C[n+]2ccccc2)cc1

["> 100 µM", "> 100 µM"]

---

tested on: SF-539 CNS; experiment: NCI tumour cell line growth inhibition, 48 h
I'd be grateful if you could share measured GI50 for these entries.

C=CC1CC12C(=O)C1OC2(C)C2C(=O)c3c(ccc4c3ccc3ccccc34)C(=O)C12 (stereo not drawn) | 47.2 µM
COC(CCP(=O)(c1ccccc1)c1ccccc1)(C(=O)c1ccccc1)c1ccccc1 (stereo not drawn) | 10.2 µM

Now look at this one.
Consider the compound CCC[CH2][Sn]([CH2]CCC)([O]C(=O)c1cccc(F)c1)[O]C(=O)c1cccc(F)c1 and give its measured GI50.
1.1 µM

---

tested on: SW-620 colon; experiment: NCI tumour cell line growth inhibition, 48 h
I'd be grateful if you could share measured TGI for these entries.

CN1CCN(c2ccc3c4c(cccc24)C(=O)N(CCN2CCN(CCCN4CCN(CCN5C(=O)c6cccc7c(N8CCN(C)CC8)ccc(c67)C5=O)CC4)CC2)C3=O)CC1 | 50 µM
COc1cc([C@@H]2c3cc4c(cc3[C@@H](NCCNCCO)[C@H]3COC(=O)[C@H]23)OCO4)cc(OC)c1O | > 100 µM
COc1ccc(C(O)CNC(=O)c2ccccc2)cc1 (stereo not given) | > 100 µM
CC(=O)Oc1ccc2c(c1)c1c(=O)oc(N(C)C)nc1n2Cc1ccccc1 | > 100 µM

Report TGI for every entry below.
1. CC1C(c2ccc3c(c2)OCO3)c2cc3c(cc2OC1N1CCCC1)OCO3 (stereo not given)
2. CC(=O)O[C@@H]1CO[C@H]2O[C@H]3[C@@H](C(C=O)=C[C@H](O)[C@@H]4C5=C(C(C)C)CC[C@]5(C)CC[C@@]34C)[C@@]2(O)C1=O
3. N#CCC(=O)Nn1c(CC#N)nnc1Cc1ccccc1
4. CC(NS(C)(=O)=O)c1ccccc1 (stereo not given)
5. O=C1OCC(C#Cc2ccccc2)=C1Cl
6. COc1cc(CSc2nc3ccc(C)cc3c(=O)n2Cc2ccccc2)cc(OC)c1OC

> 100 µM
0.213 µM
> 100 µM
> 100 µM
5.07 µM
> 100 µM

---

tested on: HT29 colon; assay: NCI tumour cell line growth inhibition, 48 h; in the data active = GI50 below about 0.43 µM; inactive = the rest
The categories you may choose from are label 1 = active, label 0 = inactive

# count of solved cases: 4
CCC(Sc1nnc2c3ccccc3n(CC)c2n1)C(=O)Nc1ccccc1OC (stereo unspecified) | label 0
Cn1c(COC(=O)N2CCCCC2)nc2c(N3CCOCC3)nc(-c3ccccc3)nc21 | label 1
Brc1ccc([I+]c2ccc(Br)cc2)cc1 | label 0
C=CC1CC12C(=O)C1OC2(C)C2C(=O)c3c(ccc4c3ccc3ccccc34)C(=O)C12 (stereo unspecified) | label 0

Then this compound:
Which outcome was assigned to Nc1cc(-c2ccccc2)ccc1O in this test?
label 0

---

test system: MCF7 breast; test: NCI tumour cell line growth inhibition, 48 h
readoutLabel: TGI

Report TGI for every entry below.
1. CC(=O)O[C@@H]1CO[C@H]2O[C@H]3[C@@H](C(C=O)=C[C@H](O)[C@@H]4C5=C(C(C)C)CC[C@]5(C)CC[C@@]34C)[C@@]2(O)C1=O
2. COc1ccc(C(O)CNC(=O)c2ccccc2)cc1 (stereo unspecified)
3. Cc1cccc(Nc2cn(COCc3ccccc3)c(=O)[nH]c2=O)c1
4. NNC(=O)c1c(Cl)c(Cl)c(Cl)c(Cl)c1-c1nc2ccccc2[nH]1
5. CC(C)(C)c1ccc(CN2CCN(C(c3ccccc3)c3ccc(Cl)cc3)CC2)cc1 (stereo unspecified)
6. NNC(=O)CNC(=O)CSc1nnc(COc2ccc(Cl)cc2)n1-c1ccccc1
7. CCCCCCCCCCCCCCCC(=O)OCC(O)C1OC(=O)C(O)=C1O (stereo unspecified)

1.69 µM
> 100 µM
> 100 µM
23 µM
> 100 µM
> 100 µM
4.81 µM

Report TGI for every entry below.
1. CCOP(=O)(Nc1ccc(-c2ccccc2)cc1)OCC
2. Nc1nc(Cl)cc(NCC2(CO)CCC(Cc3ccccc3)C2)n1 (stereo unspecified)
3. O=C1OC(c2ccc(O)c(-c3ccccc3)c2)(c2ccc(O)c(-c3ccccc3)c2)c2c(Cl)c(Cl)c(Cl)c(Cl)c21
4. CC1C(c2ccc3c(c2)OCO3)c2cc3c(cc2OC1N1CCCC1)OCO3 (stereo unspecified)
5. O=c1[nH]c2ccc(CC(=S)N3CCOCC3)cc2s1
6. O=C(N/N=C1\CCc2ccccc2C1)N/N=C1\CCc2ccccc2C1
7. COc1ccc2c(c1)C/C(=C\c1ccc(O)c(OC)c1)C2=O
8. C1COC(NC(C2CC2)C2CC2)=N1

["> 100 µM", "71 µM", "> 100 µM", "> 100 µM", "> 100 µM", "> 10 µM", "> 100 µM", "> 100 µM"]

Report TGI for every entry below.
1. O=P(O)(O)C(O)/C=C/c1ccccc1 (stereo unspecified)
2. Cc1cc(N(CCC#N)CCC#N)ccc1/C(N=Nc1cccc([N+](=O)[O-])c1)=N/NC(=O)c1cc(Cl)ccc1O
3. COc1ccc2[nH]cc(-c3nc(-c4cn(C)c5ccncc45)cs3)c2c1
4. Cc1cc2[nH]c3c(C#N)c(-c4ccccc4)c(N=Nc4cccc(C(F)(F)F)c4)c(=O)n3c2cc1C
5. CC(NS(C)(=O)=O)c1ccccc1 (stereo unspecified)
6. CCCN1C(=O)CCC2=C1CCc1c2ccc(Cl)c1Cl

1: > 100 µM; 2: > 100 µM; 3: 3.65 µM; 4: > 100 µM; 5: > 100 µM; 6: > 100 µM

---

tested on: SF-268 CNS; assay: NCI tumour cell line growth inhibition, 48 h
I'd be grateful if you could share measured GI50 for these entries.

O=C(Nc1ccc(Br)cc1)Nc1n[nH]c2ccccc12 | > 46 µM
COc1ccc2c(c1)CC[C@@H]1[C@@H]2CC[C@@]2(C)[C@H]1CC1(CCCCC1)[C@@H]2O | 12 µM

Now look at this one.
Consider the compound N#Cc1ccccc1C#C/C=C\C#Cc1ccc(OCCCNC(=O)c2cc3ccccc3[nH]2)cc1 and give its measured GI50.
30.6 µM
